# targetOfAssay: T1, human IL-23R endogenously expressed on DB cells (human, UniProt Q5VWK5 24-629)
# T1 sequence (looked up): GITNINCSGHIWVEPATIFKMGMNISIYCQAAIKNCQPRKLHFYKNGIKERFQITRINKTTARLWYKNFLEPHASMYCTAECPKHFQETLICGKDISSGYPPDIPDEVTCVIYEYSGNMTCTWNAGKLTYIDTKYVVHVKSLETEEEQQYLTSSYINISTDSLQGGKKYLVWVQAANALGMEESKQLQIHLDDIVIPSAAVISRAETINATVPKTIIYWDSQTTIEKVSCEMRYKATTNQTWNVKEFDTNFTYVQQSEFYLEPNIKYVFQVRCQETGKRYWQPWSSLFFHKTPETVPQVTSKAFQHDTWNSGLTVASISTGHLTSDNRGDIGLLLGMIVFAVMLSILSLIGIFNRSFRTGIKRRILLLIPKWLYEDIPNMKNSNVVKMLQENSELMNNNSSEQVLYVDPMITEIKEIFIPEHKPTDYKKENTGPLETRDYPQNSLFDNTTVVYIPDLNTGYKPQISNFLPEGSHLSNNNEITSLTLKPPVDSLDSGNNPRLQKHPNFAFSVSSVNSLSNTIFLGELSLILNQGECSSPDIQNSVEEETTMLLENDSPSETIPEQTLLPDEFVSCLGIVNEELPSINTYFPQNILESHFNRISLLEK
# assayInfo: cell-based or functional assay
*1 amine or outer side, *2 acyl side, *3 side chain or, on linkers, in order; H or OH if unused. Bridges are numbered along the chain shown (N, C = ends). Primed or numbered codes have the meaning given here. [ ]: non-standard residue; d: D form. 4‑Aminomethyl‑phenylacetyl = 4-aminomethyl-phenylacetyl unit, its amine closes the lactam, O=C(Cc1ccc(CN[*:1])cc1)[*:2]; 1,3‑dibromopropan‑2‑one″ = linker forming 1,3-dithio-propan-2-one bridge -SCH2C(=O)CH2S- between two Cys; Q(pyrrolidin) = modified Gln, O=C(CC[C@H](N[*:1])C(=O)[*:2])N1CCCC1; 2Nal = N[C@@H](Cc1ccc2ccccc2c1)C(=O)O; AEF = NCCOc1ccc(C[C@H](N)C(=O)O)cc1; 3Pal = N[C@@H](Cc1cccnc1)C(=O)O; αMeL = CC(C)C[C@](C)(N)C(=O)O; Dab = NCC[C@H](N)C(=O)O; βAla = NCCC(=O)O
Quick rule for you: hIL-23 (pSTAT3) antagonist IC50 under 1 nM gets Condition met, anything else gets Condition not met.

Some entries whose results are on file:
[4‑Aminomethyl‑phenylacetyl]SEWQ[Dab][AEF][2Nal][αMeL]E[Dab][3Pal]-NH2 (lactam N-10; bridge 3-6; also: (2c) bridge type not defined) [Ref 122]: Condition met
[4‑Aminomethyl‑phenylacetyl]SCWQC[AEF][2Nal][αMeL]ER-NH2 (lactam N-10; linker 3-6 via 1,3‑dibromopropan‑2‑one″) [Ref 52]: Condition not met
[dK]TVWQD[AEF][2Nal][αMeL]E[Dab][3Pal]-NH2 (lactam 1-10, N-6; SMILES CC(C)C[C@]1(C)NC(=O)[C@H](Cc2ccc3ccccc3c2)NC(=O)[C@H](Cc2ccc(OCCN)cc2)NC(=O)[C@@H]2CC(=O)N[C@H](CCCCNC(=O)CC[C@@H](C(=O)N[C@@H](CCN)C(=O)N[C@@H](Cc3cccnc3)C(N)=O)NC1=O)C(=O)N[C@@H]([C@@H](C)O)C(=O)N[C@@H](C(C)C)C(=O)N[C@@H](Cc1c[nH]c3ccccc13)C(=O)N[C@@H](CCC(N)=O)C(=O)N2) [Compound 3]: Condition not met
ETWQE[AEF][2Nal][αMeL]K[Dab][3Pal]-NHMe (lactam 1-9, N-5; SMILES CNC(=O)[C@H](Cc1cccnc1)NC(=O)[C@H](CCN)NC(=O)[C@@H]1CCCCNC(=O)CC[C@@H]2NC(=O)CC[C@H](NC(=O)[C@H](CCC(N)=O)NC(=O)[C@H](Cc3c[nH]c4ccccc34)NC(=O)[C@H]([C@@H](C)O)NC2=O)C(=O)N[C@@H](Cc2ccc(OCCN)cc2)C(=O)N[C@@H](Cc2ccc3ccccc3c2)C(=O)N[C@@](C)(CC(C)C)C(=O)N1) [Compound 39]: Condition not met
[4‑Aminomethyl‑phenylacetyl]SEW[Q(pyrrolidin)][Dab][AEF][2Nal][αMeL]E[Dab]-NH2 (lactam N-10; bridge 3-6; also: (2c) bridge type not defined) [Ref 146]: Condition not met
K[βAla]WQE[AEF][2Nal][αMeL]E[Dab][3Pal]-NHMe (lactam 1-9, N-5; SMILES CNC(=O)[C@H](Cc1cccnc1)NC(=O)[C@H](CCN)NC(=O)[C@@H]1CCC(=O)NCCCC[C@@H]2NC(=O)CC[C@H](NC(=O)[C@H](CCC(N)=O)NC(=O)[C@H](Cc3c[nH]c4ccccc34)NC(=O)CCNC2=O)C(=O)N[C@@H](Cc2ccc(OCCN)cc2)C(=O)N[C@@H](Cc2ccc3ccccc3c2)C(=O)N[C@@](C)(CC(C)C)C(=O)N1) [Compound 45]: Condition met

Prompt: Identify whether the binder KTWQE[AEF][2Nal][αMeL]E[Dab][3Pal]-NHMe (lactam 1-9, N-5; SMILES CNC(=O)[C@H](Cc1cccnc1)NC(=O)[C@H](CCN)NC(=O)[C@@H]1CCC(=O)NCCCC[C@@H]2NC(=O)CC[C@H](NC(=O)[C@H](CCC(N)=O)NC(=O)[C@H](Cc3c[nH]c4ccccc34)NC(=O)[C@H]([C@@H](C)O)NC2=O)C(=O)N[C@@H](Cc2ccc(OCCN)cc2)C(=O)N[C@@H](Cc2ccc3ccccc3c2)C(=O)N[C@@](C)(CC(C)C)C(=O)N1) [Compound 36] records hIL-23 (pSTAT3) antagonist IC50 below 1 nM.
Completion: Condition not met

Prompt: hey, is hIL-23 (pSTAT3) antagonist IC50 for [4‑Aminomethyl‑phenylacetyl]SCWQC[AEF][2Nal][αMeL]E[Dab][3Pal]-NH2 (lactam N-10; linker 3-6 via 1,3‑dibromopropan‑2‑one″) [Ref 120] lower than 1 nM or not?
Completion: Condition met
